Catalogue of binders with associated Kd
Biological target: T1, hK1 (human tissue kallikrein 1), recombinant (human, UniProt P06870 25-262)
T1 construct: Expressed in P. pastoris from KLK1 cDNA and purified; enzymatically active; also called KLK1; Recombinant (Pichia) Kallikrein
Assay: SPR
experimental.endpoint: Kd

• M0131-G06 (Fab, V domains shown) VH: EVQLLESGGGLVQPGGSLRLSCAASGFTFSSYAMTWVRQAPGKGLEWVSSISSSGGDTAYADSVKGRFTISRDNSKNTLYLQMNSLRAEDTAVYYCATERHYIWGSYRYSWFDPWGQGTLVTVSS VL: AQYELTQAPSASGTPGQRVTISCSGSRSNIGTNPVNWYQHVPGTAPKLLILVNNQRPSGVPDRFSGSKSGASASLAISGLQSEDEAEYYCATWDGSLNGPVFGGGTKLTVLR = 29.7 nM
• M0131-D01 (Fab, V domains shown) VH: EVQLLESGGGLVQPGGSLRLSCAASGFTFSHYNMNWVRQAPGKGLEWVSVIYPSGGQTHYADSVKGRFTISRDNSKNTLYLQMNSLRAEDTAVYYCARRGIWHSFDIWGQGTMVTVSS VL: DIQMTQSPGTLSLSPGERASLSCRASQSVSSNYLSWYQQKPGQAPRLLIYGTSNRASGIPVRFSGSGSGTDFTLTISRLEPEDFAVYYCQQYGGAPLFIFGPGTRVDIKR = 1.04 nM
• M0119-B09 (Fab, V domains shown) VH: EVQLLESGGGLVQPGGSLRLSCAASGFTFSWYWMYWVRQAPGKGLEWVSVIGSSGGVTKYADSVKGRFTISRDNSKNTLYLQMNSLRAEDTATYYCARGPYRGYFDYWGQGTLVTVSS VL: DIQMTQSPATLSVSPGEGATLSCRASQSVGNSLAWYQQKPGQAPRVLVYGASTRASGIPARFSGSGSVTEFTLTISSLQSEDFAVYYCQEYNKWPITFGQGTRLERKR = 13.7 nM
